# Target or test system: histamine H1 receptor (Cavia porcellus)
# Sequence (P31389 whole entry): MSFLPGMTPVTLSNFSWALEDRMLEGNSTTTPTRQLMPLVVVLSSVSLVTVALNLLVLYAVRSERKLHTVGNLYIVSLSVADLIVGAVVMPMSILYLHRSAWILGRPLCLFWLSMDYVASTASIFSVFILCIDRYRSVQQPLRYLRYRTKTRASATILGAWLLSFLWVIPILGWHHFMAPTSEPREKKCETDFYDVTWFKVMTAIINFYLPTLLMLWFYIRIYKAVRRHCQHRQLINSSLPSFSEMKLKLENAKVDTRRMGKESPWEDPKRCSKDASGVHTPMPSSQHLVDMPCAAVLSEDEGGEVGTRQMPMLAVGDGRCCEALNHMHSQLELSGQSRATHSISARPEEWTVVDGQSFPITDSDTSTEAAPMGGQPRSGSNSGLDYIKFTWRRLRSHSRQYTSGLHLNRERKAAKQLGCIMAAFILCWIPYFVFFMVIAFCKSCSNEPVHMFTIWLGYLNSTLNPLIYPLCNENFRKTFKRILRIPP
Measured parameter: IC50

Reference set, count: 8
Smiles structure: COc1ccc(C(=O)O)c(OCCN2CCC(c3cn(Cc4ccoc4)c4ncccc34)CC2)c1
Target or test system: histamine H1 receptor (Cavia porcellus)
IC50: 120 nM
//
Smiles structure: O=C(O)c1ccccc1OCCN1CCC(c2cn(Cc3ccoc3)c3ncccc23)CC1
Target or test system: histamine H1 receptor (Cavia porcellus)
IC50: 225 nM
//
Smiles structure: CCOCCn1cc(C2CCN(CCOc3c(OC)cccc3C(=O)O)CC2)c2cccnc21
Target or test system: histamine H1 receptor (Cavia porcellus)
IC50: 155 nM
//
Smiles structure: CCOCCn1cc(C2CCN(CCOc3ccccc3C(=O)O)CC2)c2cccnc21
Target or test system: histamine H1 receptor (Cavia porcellus)
IC50: 190 nM
//
Smiles structure: COCCn1cc(C2CCN(CCOc3cccc(OC)c3C(=O)O)CC2)c2cccnc21
Target or test system: histamine H1 receptor (Cavia porcellus)
IC50: 275 nM
//
Smiles structure: O=C(O)c1ccc(Cl)cc1OCCN1CCC(c2cn(Cc3ccc(Cl)s3)c3cnccc23)CC1
Target or test system: histamine H1 receptor (Cavia porcellus)
IC50: 105 nM
//
Smiles structure: O=C(O)c1ccccc1OCCN1CCC(c2cn(Cc3cccs3)c3ncccc23)CC1
Target or test system: histamine H1 receptor (Cavia porcellus)
IC50: 505 nM
//
Smiles structure: O=C(O)c1ccccc1OCCN1CCC(c2cn(Cc3ccc(Cl)s3)c3ncccc23)CC1
Target or test system: histamine H1 receptor (Cavia porcellus)
IC50: 265 nM

Working through the 3 compounds below one at a time, give IC50 for each.
1. COc1ccc(CN2CCC(c3cn(Cc4ccco4)c4ncccc34)CC2)cc1C(=O)O
2. O=C(O)c1cccc(CN2CCC(c3cn(CC4CC4)c4ncccc34)CC2)c1
3. O=C(O)c1ccccc1OCCN1CCC(c2cn(Cc3ccco3)c3ncccc23)CC1

# output
335 nM
520 nM
405 nM

Reference source for all entries: patent US7622480B2
